These entries and their values trace back to paper PMC6021390.

Listed here are compounds together with their documented Aldehyde produced per NADH consumed.
Assay system: UniProtKB P0DPQ7
Sequence (P0DPQ7 whole entry): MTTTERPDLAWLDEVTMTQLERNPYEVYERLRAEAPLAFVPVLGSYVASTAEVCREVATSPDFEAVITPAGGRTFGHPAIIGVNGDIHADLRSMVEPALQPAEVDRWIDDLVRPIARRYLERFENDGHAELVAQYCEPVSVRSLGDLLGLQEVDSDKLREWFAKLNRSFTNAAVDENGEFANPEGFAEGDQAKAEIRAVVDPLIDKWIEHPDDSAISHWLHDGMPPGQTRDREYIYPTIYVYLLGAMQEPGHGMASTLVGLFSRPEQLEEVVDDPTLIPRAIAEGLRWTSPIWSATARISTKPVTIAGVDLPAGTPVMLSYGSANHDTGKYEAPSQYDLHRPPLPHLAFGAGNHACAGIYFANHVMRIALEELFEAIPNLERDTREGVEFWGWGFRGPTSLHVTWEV
Sequence (P0DPQ8 whole entry partner): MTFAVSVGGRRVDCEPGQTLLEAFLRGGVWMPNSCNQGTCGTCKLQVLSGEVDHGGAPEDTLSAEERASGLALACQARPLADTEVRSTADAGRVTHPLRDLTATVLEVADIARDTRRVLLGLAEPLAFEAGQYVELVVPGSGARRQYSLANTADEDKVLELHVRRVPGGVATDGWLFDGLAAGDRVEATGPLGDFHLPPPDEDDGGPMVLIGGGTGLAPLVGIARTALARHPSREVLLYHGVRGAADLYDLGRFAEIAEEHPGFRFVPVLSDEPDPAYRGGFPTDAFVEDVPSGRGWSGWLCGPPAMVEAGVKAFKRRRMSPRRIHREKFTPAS
Test: Aldehyde product determination (tryptophan assay for formaldehyde, dehydrogenase assay for acetaldehyde) versus NADH consumed
Format: biochemical, Amycolatopsis sp. ATCC 39116
Design: GST (N, cleaved yes); made in house; host or cells: E. coli Rosetta 2 (DE3)
Reported conditions: formaldehyde (acetaldehyde for guaethol); saturating substrate, 300 μM NADH, 0.2 μM GcoAB
Please give only the number in your answer, with no unit.

get_value(item= `CCOc1ccccc1O` , readout=Aldehyde produced per NADH consumed) returns 1.5

In plain terms, `COc1ccccc1C` has a documented Aldehyde produced per NADH consumed of 0.90

What the record says about `COc1cc(C=O)ccc1O` : Aldehyde produced per NADH consumed is 0.40
